- Test system: MGC-803
- assay.summary: Antiproliferative activity against human MGC-803 cells
- Type: functional, cell-based
pIC50: −log10 of the molar value.
outcome.measure: pIC50

Identify measured pIC50 associated with `COc1ccc2c(C(=O)Nc3ccc(-c4ccc5cc[nH]c5c4)cc3)cc(-c3ccccc3)nc2c1`
< 4.00

Return pIC50 for the following molecule: `O=C(Nc1ccc(C2CCCCC2)cc1)c1cc(-c2ccccc2)nc2cc(O)ccc12`
< 4.00

In one line, give reported pIC50 of the entry `COc1ccc2c(C(=O)NCc3ccc(C4CCCCC4)cc3)cc(-c3ccccc3)nc2c1` .
< 4.00

Write down pIC50 measured for item `COc1ccc2c(C(=O)Nc3ccc(F)cc3)cc(-c3ccccc3)nc2c1`
< 4.00

Given the molecule `CCOC(=O)COc1ccc2c(C(=O)NCc3ccc(C4CCCCC4)cc3)cc(-c3ccccc3)nc2c1` , write its reported pIC50.
< 4.00

Name the recorded pIC50 of the item `COc1ccc2c(C(=O)Nc3ccc(-c4ccc(C(C)C)cc4)cc3)cc(-c3ccccc3)nc2c1` in your answer.
< 4.00
